Attribution: patent US11674136B2

So I've got a bunch of compounds here, and I need their pIC50 values.
# system name: Recombinant human N-His6-IDE42-1019 (Homo sapiens, UniProt P14735)
# Construct: Recombinant human N-His6-IDE42-1019(R&D Systems); His6 (N)
# Sequence (P14735 42-1019): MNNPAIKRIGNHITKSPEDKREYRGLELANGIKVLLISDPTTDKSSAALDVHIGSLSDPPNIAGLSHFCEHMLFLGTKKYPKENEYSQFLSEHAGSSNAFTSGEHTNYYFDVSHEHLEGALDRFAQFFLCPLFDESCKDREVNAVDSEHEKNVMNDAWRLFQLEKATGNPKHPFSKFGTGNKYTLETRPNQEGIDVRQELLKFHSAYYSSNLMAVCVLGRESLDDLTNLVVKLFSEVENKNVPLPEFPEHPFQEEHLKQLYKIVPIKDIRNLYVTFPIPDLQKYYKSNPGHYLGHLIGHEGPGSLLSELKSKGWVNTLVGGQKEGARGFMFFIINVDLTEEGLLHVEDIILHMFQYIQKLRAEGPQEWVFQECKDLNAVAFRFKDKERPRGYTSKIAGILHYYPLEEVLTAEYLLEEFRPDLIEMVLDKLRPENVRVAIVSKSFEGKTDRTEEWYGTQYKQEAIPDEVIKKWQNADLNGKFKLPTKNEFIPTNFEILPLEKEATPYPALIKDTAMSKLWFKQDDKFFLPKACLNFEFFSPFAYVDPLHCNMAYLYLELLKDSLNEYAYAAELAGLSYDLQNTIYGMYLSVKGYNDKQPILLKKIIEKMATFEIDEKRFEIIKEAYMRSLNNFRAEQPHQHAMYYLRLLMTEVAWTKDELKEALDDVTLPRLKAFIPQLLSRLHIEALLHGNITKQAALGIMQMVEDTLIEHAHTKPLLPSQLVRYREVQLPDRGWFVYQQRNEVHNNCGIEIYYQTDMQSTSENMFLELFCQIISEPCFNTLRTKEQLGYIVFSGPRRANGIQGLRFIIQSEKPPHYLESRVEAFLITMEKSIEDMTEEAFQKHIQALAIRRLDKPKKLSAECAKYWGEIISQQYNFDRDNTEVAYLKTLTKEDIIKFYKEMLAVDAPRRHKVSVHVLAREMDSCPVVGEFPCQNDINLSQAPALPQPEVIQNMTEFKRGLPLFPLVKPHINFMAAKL
# protocol details: IDE inhibition assay with fluorogenic decapeptide substrate Mca-RPPGFSAFK(Dnp)-OH
# experimental setup: fluorogenic decapeptide cleavage assay; DNA-free macrocycle
Answers are plain numbers, as −log10 of the molar value.

compound | system name | pIC50
NCCOCCNC(=O)C1CCNC(=O)C=CC(=O)NC(Cc2ccccc2C(F)(F)F)C(=O)NC(CC2CCCCC2)C(=O)NC(Cc2ccc(C(=O)c3ccccc3)cc2)C(=O)N1 (stereo not drawn) [cis-DJIR] | Recombinant human N-His6-IDE42-1019 (Homo sapiens, UniProt P14735) | 7.40
CC1NC(=O)C=CC(=O)NC(C(=O)NCCOCCN)Cc2cccc(c2)CNC(=O)C(Cc2ccc(C(=O)c3ccccc3)cc2)NC(=O)C(CC2CCCCC2)NC1=O (stereo not drawn) [trans-DJPM] | Recombinant human N-His6-IDE42-1019 (Homo sapiens, UniProt P14735) | 7.30

Given the compound NCCOCCNC(=O)C1Cc2ccccc2CNC(=O)CC(Cc2ccccc2)NC(=O)C(Cc2ccco2)NC(=O)CN2CCN(CC2)C(=O)C=CC(=O)N1 (stereo not drawn) [cis-CODVV] , what is its reported pIC50?
4.52
